- procedureText: Long-term storage stability of NCA, purity by DSC
- Format: physicochemical
- conditionSummary: storage at −20±5° C., half year; DSC
I'd be grateful if you could share measured Purity after a half year from purification for these entries.
Give bare numbers, in mol %.

compound | measurementUnit | experimentalValue
O=C(CC1NC(=O)OC1=O)OCc1ccccc1 (stereo not drawn) | mol % | 99.25
CC(C)C1NC(=O)OC1=O (stereo not drawn) | mol % | 98.77
COCOCCCC1NC(=O)OC1=O (stereo not drawn) | mol % | 98.95
O=C1NC(Cc2ccccc2)C(=O)O1 (stereo not drawn) | mol % | 98.85
O=C1CNC(=O)O1 | mol % | 99.15

Please turn your attention to the following entry.
Can you share its Purity after a half year from purification? I mean this compound: CC(C)(C)OC(=O)CC1NC(=O)OC1=O (stereo not drawn) 99.17

----------
I'd be grateful if you could share measured Purity after 1 year from purification for these entries.
- procedureText: Long-term storage stability of NCA, purity by DSC
- Format: physicochemical
- conditionSummary: storage at −20±5° C., 1 year; DSC
Could you write the number and then its unit?

molecule | Purity after 1 year from purification
COCOCCCC1NC(=O)OC1=O (stereo not drawn) | 99.00 mol %

Value sought for every listed molecule: Purity after 1 year from purification.
1. O=C1CCCNC(=O)O1 [(R)]
2. O=C(CCC1NC(=O)OC1=O)OCc1ccccc1 (stereo not drawn)
3. CC(C)(C)OCCCC1NC(=O)OC1=O (stereo not drawn)

99.06 mol %
99.41 mol %
99.12 mol %

Value sought for every listed molecule: Purity after 1 year from purification.
1. CN1CC(=O)OC1=O
2. CC(C)(C)OC(=O)CCC1CC(=O)OC1=O (stereo not drawn) [(A)]
3. CC(C)C1NC(=O)OC1=O (stereo not drawn)
4. CC(C)(C)OC(=O)N1CC(=O)OC1=O
5. CC(C)(C)OC(=O)CCC1CC(=O)OC1=O (stereo not drawn) [Comparison 1, reference compound]
6. CC(=O)OCCCC1NC(=O)OC1=O (stereo not drawn)
7. CC(C)(C)[Si](OCCC1NC(=O)OC1=O)(c1ccccc1)c1ccccc1 (stereo not drawn)
8. O=C1NC(CCCOCc2ccccc2)C(=O)O1 (stereo not drawn) [(E)]

98.92 mol %
98.92 mol %
98.79 mol %
99.04 mol %
98.02 mol %
99.22 mol %
99.36 mol %
98.88 mol %

----------
- procedureText: Long-term storage stability of NCA, purity by DSC
- Type: physicochemical
- conditionSummary: initial value of storage test at 0 to 5° C.; DSC
I'd be grateful if you could share measured Purity after purification for these entries.
Numbers only, in mol %.

compound | Purity after purification [mol %]
CC(C)(C)OC(=O)N1CC(=O)OC1=O | 99.05
CC(=O)OCCCC1NC(=O)OC1=O (stereo not drawn) | 99.20
O=C1CCNC(=O)O1 | 99.32

Value sought for every listed compound: Purity after purification.
1. CC(C)CC1NC(=O)OC1=O (stereo not drawn)
2. O=C1NC(CCCOCc2ccccc2)C(=O)O1 (stereo not drawn) [(E)]
3. O=C1CCCNC(=O)O1 [(R)]

1: 98.91; 2: 98.90; 3: 99.03

----------
I'd be grateful if you could share measured Purity after a half year from purification for these entries.
- procedureText: Long-term storage stability of NCA, purity by DSC
- Type: physicochemical
- conditionSummary: storage at −20±5° C., half year; DSC
- Method: In Examples and Comparative Examples, the purity of each NCA was measured using differential scanning calorimeter (DSC) in accordance with 2.52 thermal analysis method of The Japanese Pharmacopoeia, 17th ed. (2.4.4. measurement of purity). […] Each purified NCA was evaluated for long-term storage stability. […] Regarding the conditions of −20±5° C., the results of purity measured by DSC at after a half year, after 1 year, and after 2 years are shown. […]

Previously resolved entries follow.
compound | experimentalValue
CC(=O)OCCCC1NC(=O)OC1=O (stereo not shown) | 99.22 mol %
CC(C)(C)OC(=O)N1CC(=O)OC1=O | 99.02 mol %

Value sought for every listed compound: Purity after a half year from purification.
1. CN1CC(=O)OC1=O
2. O=C1NC(CCCOCc2ccccc2)C(=O)O1 (stereo not shown) [(E)]
3. O=C1CCNC(=O)O1
4. CC(=O)N1CC(=O)OC1=O
5. CC(C)(C)OC(=O)CCC1CC(=O)OC1=O (stereo not shown) [Comparison 1, reference compound]
6. O=C1CCCNC(=O)O1 [(R)]
7. CC(C)CC1NC(=O)OC1=O (stereo not shown)

98.90 mol %
98.89 mol %
99.33 mol %
99.23 mol %
98.06 mol %
99.07 mol %
98.92 mol %

Value sought for every listed compound: Purity after a half year from purification.
1. CC(C)(C)[Si](OCCC1NC(=O)OC1=O)(c1ccccc1)c1ccccc1 (stereo not shown)
2. O=C(CCC1NC(=O)OC1=O)OCc1ccccc1 (stereo not shown)
3. CC(C)(C)OCCCC1NC(=O)OC1=O (stereo not shown)
4. CC(C)(C)OC(=O)CCC1CC(=O)OC1=O (stereo not shown) [(A)]

1: 99.35 mol %; 2: 99.40 mol %; 3: 99.12 mol %; 4: 98.94 mol %

----------
I'd be grateful if you could share measured Purity after 2 months from purification for these entries.
- procedureText: Long-term storage stability of NCA, purity by DSC
- Assay type: physicochemical
- conditionSummary: storage at 0 to 5° C., 2 months; DSC
- Description: In Examples and Comparative Examples, the purity of each NCA was measured using differential scanning calorimeter (DSC) in accordance with 2.52 thermal analysis method of The Japanese Pharmacopoeia, 17th ed. (2.4.4. measurement of purity). […] Each purified NCA was evaluated for long-term storage stability. […] Regarding the conditions of −20±5° C., the results of purity measured by DSC at after a half year, after 1 year, and after 2 years are shown. […]
Give bare numbers, in mol %.

Value sought for every listed compound: Purity after 2 months from purification.
1. O=C1CNC(=O)O1
2. O=C1NC(CCCOCc2ccccc2)C(=O)O1 (stereo not shown) [(E)]
3. CC(C)CC1NC(=O)OC1=O (stereo not shown)
4. CC(C)(C)[Si](OCCC1NC(=O)OC1=O)(c1ccccc1)c1ccccc1 (stereo not shown)
5. O=C(CCC1NC(=O)OC1=O)OCc1ccccc1 (stereo not shown)

1: 99.10; 2: 98.88; 3: 98.94; 4: 99.36; 5: 99.41

Value sought for every listed compound: Purity after 2 months from purification.
1. CC(C)(C)OC(=O)CC1NC(=O)OC1=O (stereo not shown)
2. O=C1CCNC(=O)O1
3. CN1CC(=O)OC1=O
4. CC(C)(C)OC(=O)CCC1CC(=O)OC1=O (stereo not shown) [(A)]

1: 99.19; 2: 99.31; 3: 98.92; 4: 98.92

----------
- procedureText: Long-term storage stability of NCA, purity by DSC
- Format: physicochemical
- conditionSummary: storage at 0 to 5° C., 1 month; DSC
property: Purity after 1 month from purification (mol %)
Answers are plain numbers, in mol %.

Previously resolved entries follow.
compound | measurementUnit | Purity after 1 month from purification
CC(C)(C)OC(=O)CCC1CC(=O)OC1=O (stereo not drawn) [(A)] | mol % | 98.93
O=C1NC(Cc2ccccc2)C(=O)O1 (stereo not drawn) | mol % | 98.88
CC(C)(C)OC(=O)CC1NC(=O)OC1=O (stereo not drawn) | mol % | 99.19
CC(C)(C)OC(=O)N1CC(=O)OC1=O | mol % | 99.07

Please turn your attention to the following entry.
Can you share its Purity after 1 month from purification? I mean this compound: O=C1NC(CCCOCc2ccccc2)C(=O)O1 (stereo not drawn) [(E)] 98.90

----------
- procedureText: Long-term storage stability of NCA, purity by DSC
- Assay type: physicochemical
- conditionSummary: initial value of storage test at −20±5° C.; DSC
property: Purity after purification (mol %)
One number for each entry, in mol %.

Previously resolved entries follow.
compound | measurementUnit | Purity after purification
O=C1NC(CCCOCc2ccccc2)C(=O)O1 (centres unmarked) [(E)] | mol % | 98.90
CN1CC(=O)OC1=O | mol % | 98.94

Value sought for every listed compound: Purity after purification.
1. CC(C)CC1NC(=O)OC1=O (centres unmarked)
2. CC(C)(C)OC(=O)CCC1CC(=O)OC1=O (centres unmarked) [(A)]
3. O=C1CCNC(=O)O1

[98.91, 98.93, 99.32]

----------
I'd be grateful if you could share measured Purity after a half year from purification for these entries.
- procedureText: Long-term storage stability of NCA, purity by DSC
- Assay type: physicochemical
- conditionSummary: storage at 0 to 5° C., half year; DSC
Numbers only, in mol %.

Previously resolved entries follow.
molecule | experimentalValue
CC(C)C1NC(=O)OC1=O (stereo not drawn) [(O)] | 98.73
CN1CC(=O)OC1=O [(K)] | 98.90
CC(C)(C)[Si](OCCC1NC(=O)OC1=O)(c1ccccc1)c1ccccc1 (stereo not drawn) [(I)] | 99.36
O=C1CNC(=O)O1 [(J)] | 99.08
CC(C)CC1NC(=O)OC1=O (stereo not drawn) [(P)] | 98.94

Value sought for every listed molecule: Purity after a half year from purification.
1. O=C1CCNC(=O)O1 [(Q)]
2. CC(C)(C)OCCCC1NC(=O)OC1=O (stereo not drawn) [(F)]
3. CC(=O)N1CC(=O)OC1=O [(M)]

99.32
99.10
99.24

Hey, just so you know, these numbers are from patent US10975042B2.
